These data points were gathered from patent US7550469B2.

Biological target: cloned human dopamine D3 receptors (Homo sapiens, UniProt P35462)
Construct: expressed in transfected cells; membrane homogenate
Sequence (P35462 whole entry): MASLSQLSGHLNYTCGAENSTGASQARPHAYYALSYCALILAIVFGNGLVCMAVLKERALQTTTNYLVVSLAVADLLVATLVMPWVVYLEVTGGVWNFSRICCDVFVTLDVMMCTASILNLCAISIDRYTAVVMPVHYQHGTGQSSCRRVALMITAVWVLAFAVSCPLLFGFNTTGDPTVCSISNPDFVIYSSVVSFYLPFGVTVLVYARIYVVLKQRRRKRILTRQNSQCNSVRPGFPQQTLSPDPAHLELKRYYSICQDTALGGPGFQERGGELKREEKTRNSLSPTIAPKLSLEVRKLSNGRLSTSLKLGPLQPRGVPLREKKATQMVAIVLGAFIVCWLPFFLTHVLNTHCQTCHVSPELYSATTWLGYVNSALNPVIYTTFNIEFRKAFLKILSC
Test: [N-Methyl-3H]Spiroperidol binding to cloned human dopamine D3 receptors (Protocol 1)
Details: Table 2; read-out: D3K1
READOUT_TYPE: Ki (nM)
Answer format: numeric, nM implied, no suffix.

Problem: What Ki value was documented for this compound, COc1ccc(C(=O)NC/C=C/CN2CCN(c3csc4cc(C(F)(F)F)ccc34)CC2)cc1 ?
Solution: 22.6

Problem: What Ki value was documented for this compound, O=C(NCC(CO)CCN1CCN(c2csc3cc(C(F)(F)F)ccc23)CC1)c1cccc(C(=O)c2ccccc2)c1 (single isomer, unassigned) [818912ES] ?
Solution: 249

====

Biological target: cloned human dopamine D3 receptors (Homo sapiens, UniProt P35462)
Construct: expressed in transfected cells; membrane homogenate
Assay: [N-Methyl-3H]Spiroperidol binding to cloned human dopamine D3 receptors (Protocol 1)
Details: the 13th table, unit inferred; read-out: D3Ki
From the text: [N-Methyl-^3H]Spiroperidol Binding to Cloned Human Dopamine D3 Receptors This assay measures the in vitro activity of compounds on cloned human dopamine (D3) receptors and predicts the direct dopamine-blocking properties of putative neuropsychiatric agents at human dopamine D3 receptors. The D3 gene was isolated from a human striatal cDNA library (Stratagene). The gene was sequenced and sub-cloned into the expression vector RC/RSV (Invitrogen). […]
pKi overview
Quick note: pKi values are minus log10 of concentrations in mol/L.

// below: answered compounds
- SMILES_INPUT: "O=C(NCCCCN1CCCN(c2csc3cc(F)ccc23)CC1)c1cccc2c1-c1ccccc1C2=O"
  STUDY_TARGET: "cloned human dopamine D3 receptors (Homo sapiens, UniProt P35462)"
  READOUT_TYPE: "pKi"
  RESULT: 8.85
- SMILES_INPUT: "O=C(NCCCCCN1CCCN(c2csc3cc(F)ccc23)CC1)c1cccc2cc[nH]c12"
  STUDY_TARGET: "cloned human dopamine D3 receptors (Homo sapiens, UniProt P35462)"
  READOUT_TYPE: "pKi"
  RESULT: 7.58
- SMILES_INPUT: "COc1cccc(C(=O)NCCCCN2CCCN(c3csc4cc(C(F)(F)F)ccc34)CC2)c1"
  STUDY_TARGET: "cloned human dopamine D3 receptors (Homo sapiens, UniProt P35462)"
  READOUT_TYPE: "pKi"
  RESULT: 7.37

Problem: What pKi value was documented for this compound, CC(C)(C)c1ccc(C(=O)NCCCCN2CCCN(c3csc4cc(F)ccc34)CC2)cc1 ?
Solution: 7.98

Problem: What pKi value was documented for this compound, O=C(Cc1ccccc1F)NCCCCN1CCCN(c2csc3cc(F)ccc23)CC1 ?
Solution: 9.23

Problem: What pKi value was documented for this compound, COc1ccc(C(=O)NCCCCCN2CCC(c3noc4ccsc34)CC2)cc1OC ?
Solution: 6.57

Problem: What pKi value was documented for this compound, CC(C)(C)c1ccc(C(=O)NCCCCN2CCCN(c3csc4cc(C(F)(F)F)ccc34)CC2)cc1 ?
Solution: 7.16

Problem: What pKi value was documented for this compound, O=C(NCCCCCN1CCC(c2noc3ccsc23)CC1)c1cccc(Cl)c1 ?
Solution: 6.58

Problem: What pKi value was documented for this compound, O=C(NCCCCCN1CCC(c2noc3ccsc23)CC1)c1ccc2ccccc2c1 ?
Solution: 6.94

Problem: What pKi value was documented for this compound, Cc1ccc(Sc2cc(C(=O)NCCCCN3CCCN(c4csc5cc(C(F)(F)F)ccc45)CC3)ccn2)cc1 ?
Solution: 6.96

====

Target: cloned human dopamine D3 receptors (Homo sapiens)
Construct: expressed in transfected cells; membrane homogenate
Assay: [N-Methyl-3H]Spiroperidol binding to cloned human dopamine D3 receptors (Protocol 1)
Conditions: the 21st table; read-out: D3 Ki
One threshold, 100 nM, splits the recorded Ki values: lower ones are satisfied, equal or higher ones are not satisfied.

- SMILES_INPUT: "C[C@@H]1CN(c2csc3cc(C(F)(F)F)ccc23)C[C@H](C)N1CCCCNC(=O)c1n[nH]c2ccccc12"
  CLASS_NAME: "not satisfied"

Problem: Item COc1ccc(C(=O)NCCCCN2[C@H](C)CN(c3csc4cc(F)ccc34)C[C@@H]2C)cc1OC : Ki beneath 100 nM, strictly?
Solution: satisfied

====

Biological target: cloned human dopamine D3 receptors (Homo sapiens, UniProt P35462)
Construct: expressed in transfected cells; membrane homogenate
Assay: [N-Methyl-3H]Spiroperidol binding to cloned human dopamine D3 receptors (Protocol 1)
Conditions: the 14th table; read-out: D3 Ki
Measured Ki determines class: bucket 1 (below 4 nM), bucket 2 (4 nM to below 40 nM), bucket 3 (40 nM or more)

Look over these answered cases.
- COMPOUND: "O=C(NCCCCCCN1CCN(c2csc3cc(C(F)(F)F)ccc23)CC1)c1cccc2[nH]ccc12 [compound 826741]"
  STUDY_TARGET: "cloned human dopamine D3 receptors (Homo sapiens, UniProt P35462)"
  CLASS_NAME: "bucket 2"
- COMPOUND: "O=C(N[C@@H](CO)CCCN1CCN(c2csc3cc(C(F)(F)F)ccc23)CC1)c1cc2ccccc2o1 [compound 815677]"
  STUDY_TARGET: "cloned human dopamine D3 receptors (Homo sapiens, UniProt P35462)"
  CLASS_NAME: "bucket 3"
- COMPOUND: "O=C(NCCCCN1CCN(c2c(-c3ccccc3)sc3cc(F)ccc23)CC1)c1cccc(F)c1 [compound 815870]"
  STUDY_TARGET: "cloned human dopamine D3 receptors (Homo sapiens, UniProt P35462)"
  CLASS_NAME: "bucket 2"
- COMPOUND: "Cn1c(C(=O)NCCCCCN2CCN(c3csc4cc(F)ccc34)CC2)cc2ccccc21 [compound 826786]"
  STUDY_TARGET: "cloned human dopamine D3 receptors (Homo sapiens, UniProt P35462)"
  CLASS_NAME: "bucket 1"
- COMPOUND: "O=C(NCCCCCN1CCN(c2csc3cc(F)ccc23)CC1)c1cc2ccccc2[nH]1 [compound 826784]"
  STUDY_TARGET: "cloned human dopamine D3 receptors (Homo sapiens, UniProt P35462)"
  CLASS_NAME: "bucket 1"
- COMPOUND: "O=C(NCCCCCN1CCN(c2csc3cc(C(F)(F)F)ccc23)CC1)c1c[nH]c2ccccc12 [compound 826797]"
  STUDY_TARGET: "cloned human dopamine D3 receptors (Homo sapiens, UniProt P35462)"
  CLASS_NAME: "bucket 2"

Problem: Class for CC(=O)Nc1ccc(C(=O)N[C@@H](CO)CCCN2CCN(c3csc4cc(C(F)(F)F)ccc34)CC2)cc1 [compound 815667] ?
Solution: bucket 3

Problem: Class for O=C(NCCCCCN1CCN(c2csc3cc(F)ccc23)CC1)c1cccc2ccccc12 [compound 826778] ?
Solution: bucket 1

Problem: Class for Cc1ccccc1C(=O)NCCCCCCN1CCN(c2csc3cc(C(F)(F)F)ccc23)CC1 [compound 826753] ?
Solution: bucket 2

Problem: Class for O=C(NCCCCCCN1CCN(c2csc3cc(C(F)(F)F)ccc23)CC1)c1cccc2ccccc12 [compound 826750] ?
Solution: bucket 1

Problem: Class for O=C(NCCCCCCN1CCN(c2csc3cc(C(F)(F)F)ccc23)CC1)c1n[nH]c2ccccc12 [compound 826743] ?
Solution: bucket 2

Problem: Class for O=C(NCCCCCN1CCN(c2csc3cc(C(F)(F)F)ccc23)CC1)c1ccc(OC(F)(F)F)cc1 [compound 826767] ?
Solution: bucket 2

Problem: Class for O=C(NCCCCCN1CCN(c2csc3cc(C(F)(F)F)ccc23)CC1)c1ccc2ccccc2c1 [compound 826769] ?
Solution: bucket 2

Problem: Class for O=C(NCCCCCCN1CCN(c2csc3cc(C(F)(F)F)ccc23)CC1)c1c[nH]c2ccccc12 [compound 826740] ?
Solution: bucket 3

Problem: Class for COc1ccc(C(=O)N[C@@H](CO)CCCN2CCN(c3csc4cc(C(F)(F)F)ccc34)CC2)cc1OC [compound 815665] ?
Solution: bucket 3

====

Target: cloned human dopamine D3 receptors (Homo sapiens)
Construct: expressed in transfected cells; membrane homogenate
Assay: [N-Methyl-3H]Spiroperidol binding to cloned human dopamine D3 receptors (Protocol 1)
Settings: the 26th table; read-out: D3 Ki
pKi: −log10 of the molar value.
pKi below 7 gives NOT MET; pKi at or above it gives MET.

- MOLECULE: "OC(CCN1CCC(c2noc3ccsc23)CC1)CNCCc1ccccc1 (stereo not drawn)"
  CLASS_NAME: "NOT MET"

Problem: Form field: pKi at least 7? Entry: OC(CCN1CCC(c2noc3ccsc23)CC1)CN1CCOCC1 (stereo not drawn)
Solution: NOT MET

Problem: Form field: pKi at least 7? Entry: OC(CCN1CCC(c2noc3ccsc23)CC1)CN1CCC(Cc2ccccc2)CC1 (stereo not drawn)
Solution: MET

Problem: Form field: pKi at least 7? Entry: OC(CCN1CCC(c2noc3ccsc23)CC1)CN1CCN(c2ccccc2)CC1 (stereo not drawn)
Solution: NOT MET
